Source of measurements: the supplement of paper PMC11061612

# Test system: SUP-M2 (T-Cell Non-Hodgkin's Lymphoma)
# Experiment: combination Emax (second highest fraction inhibited in the dose matrix, 72 h); higher = more inhibition; extreme values may be limits of the assay
Listed here are compounds together with their documented combination Emax.
# output: bare number, no unit

- COc1cccc(OCCCN)c1-c1cc(Nc2cnc(C#N)cn2)n[nH]1 [Prexasertib] + O=C(c1cc(Cc2n[nH]c(=O)c3ccccc23)ccc1F)N1CCN(C(=O)C2CC2)CC1 [Olaparib] (first compound max 1 µM, 7x7, partner max 10 µM): 1

Sure, the documented combination Emax for Cn1cnc2c(F)c(Nc3ccc(Br)cc3Cl)c(C(=O)NOCCO)cc21 [Selumetinib] + CCN(CCO)CCCOc1ccc2c(Nc3cc(CC(=O)Nc4cccc(F)c4)[nH]n3)ncnc2c1 [AZD2811] (first compound max 10 µM, 7x7, partner max 1 µM) is 0.998

* * *

Listed here are compounds together with their documented Bliss excess.
# Tested on: MM1S (Plasma Cell Myeloma)
# Experiment: Bliss excess, mean over the matrix (fraction); higher = more synergy
# output: bare number, no unit

• COc1cc2c(cc1OCCCCCOc1cc3c(cc1OC)C(=O)N1C=C(C)C[C@H]1C=N3)N=C[C@@H]1CC(C)=CN1C2=O [SG3199] + O=C(c1cc(Cc2n[nH]c(=O)c3ccccc23)ccc1F)N1CCN(C(=O)C2CC2)CC1 [Olaparib] (first compound max 0.001 µM, 7x7, partner max 10 µM) = 0.0663

Sure, the documented Bliss excess for CCN(CCO)CCCOc1ccc2c(Nc3cc(CC(=O)Nc4cccc(F)c4)[nH]n3)ncnc2c1 [AZD2811] + C=CCn1c(=O)c2cnc(Nc3ccc(N4CCN(C)CC4)cc3)nc2n1-c1cccc(C(C)(C)O)n1 [AZD1775] (first compound max 1 µM, partner max 1 µM) is 0.0048

* * *

Listed here are compounds together with their documented combination Emax.
# Tested on: P32-ISH (Burkitt's Lymphoma)
# Experiment: combination Emax (second highest fraction inhibited in the dose matrix, 72 h); higher = more inhibition; extreme values may be limits of the assay
# output: bare number, no unit

Previously resolved entries follow.
• Cc1c2c(nn1C)CSCc1cc(n(C)n1)CSc1cc(c3ccccc3c1)OCCCc1c(C(=O)O)n(C)c3c-2c(Cl)ccc13 [AZD5991] + CC1(C)CCC(CN2CCN(c3ccc(C(=O)NS(=O)(=O)c4ccc(NCC5CCOCC5)c([N+](=O)[O-])c4)c(Oc4cnc5[nH]ccc5c4)c3)CC2)=C(c2ccc(Cl)cc2)C1 [Venetoclax] (first compound max 1 µM, 7x7, partner max 1 µM) = 1
• COc1cc2c(cc1OCCCCCOc1cc3c(cc1OC)C(=O)N1C=C(C)C[C@H]1C=N3)N=C[C@@H]1CC(C)=CN1C2=O [SG3199] + O=C(c1cc(Cc2n[nH]c(=O)c3ccccc23)ccc1F)N1CCN(C(=O)C2CC2)CC1 [Olaparib] (first compound max 0.001 µM, 7x7, partner max 10 µM) = 0.247

Next:
Sure, the documented combination Emax for Cc1c2c(nn1C)CSCc1cc(n(C)n1)CSc1cc(c3ccccc3c1)OCCCc1c(C(=O)O)n(C)c3c-2c(Cl)ccc13 [AZD5991] + C[C@@H]1COCCN1C2=NC(=NC(=C2)C3(CC3)[S@](=N)(=O)C)C4=C5C=CNC5=NC=C4 [AZD6738] (first compound max 1 µM, 7x7, partner max 10 µM) is 1

* * *

# Test system: KP-4 (Pancreatic Carcinoma)
# Experiment: Bliss excess, mean over the matrix (fraction); higher = more synergy
Listed here are compounds together with their documented Bliss excess.

Previously resolved entries follow.
- CN(C)CCCOc1ccc(-c2ccc3ncc4c(c3c2)n(C2CCOCC2)c(=O)n4C)cn1 [AZD0156] + CCN(CCO)CCCOc1ccc2c(Nc3cc(CC(=O)Nc4cccc(F)c4)[nH]n3)ncnc2c1 [AZD2811] (first compound max 1 µM, 7x7, partner max 1 µM): -0.0162
- Cc1c2c(nn1C)CSCc1cc(n(C)n1)CSc1cc(c3ccccc3c1)OCCCc1c(C(=O)O)n(C)c3c-2c(Cl)ccc13 [AZD5991] + CCN(CCO)CCCOc1ccc2c(Nc3cc(CC(=O)Nc4cccc(F)c4)[nH]n3)ncnc2c1 [AZD2811] (first compound max 1 µM, 7x7, partner max 1 µM): 0.0247
- O=C(c1cc(Cc2n[nH]c(=O)c3ccccc23)ccc1F)N1CCN(C(=O)C2CC2)CC1 [Olaparib] + COc1nnc2ccc(N3CCC(c4ccc(OCCN5CCN(C)C(=O)[C@H]5C)cc4)CC3)nn12 [AZD5153] (first compound max 10 µM, 7x7, partner max 1 µM): -0.0266
- COc1cc2ncnc(Nc3ccc(F)c(Cl)c3)c2cc1OCCCN1CCOCC1 [Gefitinib] + CC(C)n1c(=O)n(C)c2cnc3cc(F)c(-c4ccc(OCCCN5CCCCC5)nc4)cc3c21 [AZD1390] (first compound max 10 µM, 7x7, partner max 0.3 µM): -0.073
- C[C@@H](c1ccc2nccn2c1)n1nnc2ncc(-c3cnn(C)c3)nc21 [Savolitinib] + Cc1c2c(nn1C)CSCc1cc(n(C)n1)CSc1cc(c3ccccc3c1)OCCCc1c(C(=O)O)n(C)c3c-2c(Cl)ccc13 [AZD5991] (first compound max 1 µM, 7x7, partner max 1 µM): -0.0204

Observed Bliss excess, KP-4 (Pancreatic Carcinoma), Cc1cc2ncnn2cc1Nc1ncc2c(n1)n(C1CCOCC1)c(=O)n2C [AZD7648] + CCN(CCO)CCCOc1ccc2c(Nc3cc(CC(=O)Nc4cccc(F)c4)[nH]n3)ncnc2c1 [AZD2811] (first compound max 10 µM, 7x7, partner max 1 µM) : -0.0425

Observed Bliss excess, KP-4 (Pancreatic Carcinoma), CC1(C)CCC(CN2CCN(c3ccc(C(=O)NS(=O)(=O)c4ccc(NCC5CCOCC5)c([N+](=O)[O-])c4)c(Oc4cnc5[nH]ccc5c4)c3)CC2)=C(c2ccc(Cl)cc2)C1 [Venetoclax] + COc1cc(Nc2ncc3c(n2)-c2ccc(Cl)cc2C(c2c(F)cccc2OC)=NC3)ccc1C(=O)O [Alisertib] (first compound max 1 µM, 7x7, partner max 10 µM) : -0.0542

Observed Bliss excess, KP-4 (Pancreatic Carcinoma), Cc1c2c(nn1C)CSCc1cc(n(C)n1)CSc1cc(c3ccccc3c1)OCCCc1c(C(=O)O)n(C)c3c-2c(Cl)ccc13 [AZD5991] + Cn1cnc2c(F)c(Nc3ccc(Br)cc3Cl)c(C(=O)NOCCO)cc21 [Selumetinib] (first compound max 1 µM, 7x7, partner max 3 µM) : -0.0165

* * *

# Tested on: SNU-C2B (Colorectal Carcinoma)
# Experiment: combination Emax (second highest fraction inhibited in the dose matrix, 72 h); higher = more inhibition; extreme values may be limits of the assay
Binary classification by combination Emax, with 0.4 as an inclusive lower bound for rule met; all other cases are rule not met.

Before answering, review these 5 worked examples.
* C=CCn1c(=O)c2cnc(Nc3ccc(N4CCN(C)CC4)cc3)nc2n1-c1cccc(C(C)(C)O)n1 [AZD1775] + C[C@@H]1COCCN1C2=NC(=NC(=C2)C3(CC3)[S@](=N)(=O)C)C4=C5C=CNC5=NC=C4 [AZD6738] (first compound max 1 µM, partner max 10 µM) | rule met
* CC(=O)c1c(C)c2cnc(Nc3ccc(N4CCNCC4)cn3)nc2n(C2CCCC2)c1=O [Palbociclib] + Cn1cnc2c(F)c(Nc3ccc(Br)cc3Cl)c(C(=O)NOCCO)cc21 [Selumetinib] (first compound max 10 µM, 7x7, partner max 10 µM) | rule not met
* Cn1cnc2c(F)c(Nc3ccc(Br)cc3Cl)c(C(=O)NOCCO)cc21 [Selumetinib] + CC(C)n1c(=O)n(C)c2cnc3cc(F)c(-c4ccc(OCCCN5CCCCC5)nc4)cc3c21 [AZD1390] (first compound max 10 µM, 7x7, partner max 0.3 µM) | rule not met
* CN(CCO)CC[C@H](CSc1ccccc1)Nc1ccc(S(=O)(=O)NC(=O)c2ccc(N3CCC([C@@H](O)c4ccccc4-c4ccc(Cl)cc4)CC3)cc2)cc1S(=O)(=O)C(F)(F)F [AZD4320] + Cc1cc2ncnn2cc1Nc1ncc2c(n1)n(C1CCOCC1)c(=O)n2C [AZD7648] (first compound max 1 µM, 7x7, partner max 10 µM) | rule not met
* NC1(C(=O)N[C@@H](CCO)c2ccc(Cl)cc2)CCN(c2ncnc3[nH]ccc23)CC1 [Capivasertib] + Cn1cnc2c(F)c(Nc3ccc(Br)cc3Cl)c(C(=O)NOCCO)cc21 [Selumetinib] (first compound max 10 µM, 7x7, partner max 10 µM) | rule not met

*Q* Textbook exercise: given the entry NC1(C(=O)N[C@@H](CCO)c2ccc(Cl)cc2)CCN(c2ncnc3[nH]ccc23)CC1 [Capivasertib] + COc1nnc2ccc(N3CCC(c4ccc(OCCN5CCN(C)C(=O)[C@H]5C)cc4)CC3)nn12 [AZD5153] (first compound max 10 µM, 7x7, partner max 1 µM) , state whether its combination Emax is greater than or equal to 0.4.
*A* rule met

*Q* Textbook exercise: given the entry CC1(C)CCC(CN2CCN(c3ccc(C(=O)NS(=O)(=O)c4ccc(NCC5CCOCC5)c([N+](=O)[O-])c4)c(Oc4cnc5[nH]ccc5c4)c3)CC2)=C(c2ccc(Cl)cc2)C1 [Venetoclax] + C[C@@H]1COCCN1C2=NC(=NC(=C2)C3(CC3)[S@](=N)(=O)C)C4=C5C=CNC5=NC=C4 [AZD6738] (first compound max 1 µM, 7x7, partner max 10 µM) , state whether its combination Emax is greater than or equal to 0.4.
*A* rule met

*Q* Textbook exercise: given the entry COc1cccc(OCCCN)c1-c1cc(Nc2cnc(C#N)cn2)n[nH]1 [Prexasertib] + C=CCn1c(=O)c2cnc(Nc3ccc(N4CCN(C)CC4)cc3)nc2n1-c1cccc(C(C)(C)O)n1 [AZD1775] (first compound max 1 µM, partner max 1 µM) , state whether its combination Emax is greater than or equal to 0.4.
*A* rule met

*Q* Textbook exercise: given the entry C[C@@H]1COCCN1c1cc(C2([S@](C)(=N)=O)CC2)nc(-c2ccnc3[nH]ccc23)n1 [AZD6738] + O=C(c1cc(Cc2n[nH]c(=O)c3ccccc23)ccc1F)N1CCN(C(=O)C2CC2)CC1 [Olaparib] (first compound max 10 µM, 7x7, partner max 10 µM) , state whether its combination Emax is greater than or equal to 0.4.
*A* rule met
